# target: T1, cIL2Rg-Fc (lot#P210115SV5) (cynomolgus, UniProt A0A2K5VGJ6 23-262)
# T1 construct: Named only by lot number; also called cynomolgus IL2Rg-Fc; not shown: Fc of the fusion protein
# T1 sequence: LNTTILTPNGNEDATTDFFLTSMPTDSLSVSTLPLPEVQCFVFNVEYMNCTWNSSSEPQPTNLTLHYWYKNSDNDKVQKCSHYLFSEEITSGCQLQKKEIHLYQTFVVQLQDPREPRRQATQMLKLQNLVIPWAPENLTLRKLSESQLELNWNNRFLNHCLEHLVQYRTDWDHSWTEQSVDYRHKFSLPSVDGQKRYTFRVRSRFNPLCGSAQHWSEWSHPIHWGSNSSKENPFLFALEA
# measurement protocol: SPR (Biacore T200), Fc-fused ligand captured on chip, dual VHH as analyte, 1:1 Langmuir fit
recorded metric: pKd
Numbers only, as −log10 of the molar value.

Hi there! I need pKd for each item below, if you can.
1. DR465(DR240-DR231) (bispecific antibody, Anti-hIL10Ra/hIL2Rg dual VHH with ASH6 handle; also called H1) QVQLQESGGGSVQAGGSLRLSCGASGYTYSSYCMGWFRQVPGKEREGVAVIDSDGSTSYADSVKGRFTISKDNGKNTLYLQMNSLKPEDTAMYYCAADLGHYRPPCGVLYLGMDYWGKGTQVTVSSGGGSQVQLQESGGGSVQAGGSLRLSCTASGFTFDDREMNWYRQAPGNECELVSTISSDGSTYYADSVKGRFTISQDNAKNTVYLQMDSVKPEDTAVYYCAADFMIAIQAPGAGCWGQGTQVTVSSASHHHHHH
2. DR441(DR236-DR231) (bispecific antibody, Anti-hIL10Ra/hIL2Rg dual VHH with ASH6 handle; also called F1) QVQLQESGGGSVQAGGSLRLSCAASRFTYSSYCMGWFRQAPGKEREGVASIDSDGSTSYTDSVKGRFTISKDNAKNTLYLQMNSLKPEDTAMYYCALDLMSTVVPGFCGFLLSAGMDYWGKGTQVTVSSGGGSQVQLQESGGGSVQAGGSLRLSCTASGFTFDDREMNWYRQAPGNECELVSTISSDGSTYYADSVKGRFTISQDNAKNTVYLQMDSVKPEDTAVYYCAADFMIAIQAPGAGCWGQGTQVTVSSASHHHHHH
3. DR449(DR237-DR233) (bispecific antibody, Anti-hIL10Ra/hIL2Rg dual VHH with ASH6 handle; also called F3) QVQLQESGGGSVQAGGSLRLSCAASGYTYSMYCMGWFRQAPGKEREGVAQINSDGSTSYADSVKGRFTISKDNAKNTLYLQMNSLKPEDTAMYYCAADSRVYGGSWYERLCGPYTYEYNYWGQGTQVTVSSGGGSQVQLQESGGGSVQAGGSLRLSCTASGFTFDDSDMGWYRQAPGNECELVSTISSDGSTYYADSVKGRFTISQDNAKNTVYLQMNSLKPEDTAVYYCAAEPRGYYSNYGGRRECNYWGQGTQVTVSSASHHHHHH

1. 8.49
2. 8.08
3. 7.65

Look up pKd for this binder: DR437(DR235-DR233) (bispecific antibody, Anti-hIL10Ra/hIL2Rg dual VHH with ASH6 handle; also called D6) QVQLQESGGGSVQAGGSLRLSCAASRYLYSIDYMAWFRQSPGKEREPVAVIYTASGATFYPDSVKGRFTISQDNAKMTVYLQMNSLKSEDTAMYYCAAVRKTDSYLFDAQSFTYWGQGTQVTVSSGGGSQVQLQESGGGSVQAGGSLRLSCTASGFTFDDSDMGWYRQAPGNECELVSTISSDGSTYYADSVKGRFTISQDNAKNTVYLQMNSLKPEDTAVYYCAAEPRGYYSNYGGRRECNYWGQGTQVTVSSASHHHHHH
8.11
